# TARGET OF ASSAY: human type 1 glycine transporter (GlyT1) (Homo sapiens)
# Construct: Used in the experiment were T98G cells (glioma cells) developing a human type 1 glycine transporter (GlyT1); endogenous in cells; host or cells: T98G human glioma cells
# RUN DESCRIPTION: Glycine uptake inhibition experiment ([3H] glycine uptake in T98G cells)
# Assay type: cell-based
# CONDITION DETAILS: [3H] glycine 250 nM, 15 min, room temperature, read-out: IC50 (glycine uptake inhibiting activity)
# Procedure: A glycine uptake inhibition experiment was conducted in accordance with the method described in Neuron, 8, 927-935, 1992. Used in the experiment were T98G cells (glioma cells) developing a human type 1 glycine transporter (GlyT1). The T98G cells were seeded in a 96-well plate at a density of 2.0×10^4 cells per well and cultured overnight in a CO2 incubator. […] The glycine content in the cells was determined by measuring the radioactivity in the cell lysate with a liquid scintillation counter. […]
METRIC: IC50 (µM)

[[record]]
compound = "Cn1cnc(C(=O)N(Cc2cc(Cl)cc(OC(F)(F)F)c2)C2CCOCC2)n1"
reading_unit = "µM"
obs_value = 0.0189

[[record]]
compound = "Cn1cnc(C(=O)N(Cc2ccc(F)c(OC(F)(F)F)c2)C2CCOCC2)n1"
reading_unit = "µM"
obs_value = 0.0074

[[record]]
compound = "Cn1cnc(C(=O)N(Cc2cccc(C(F)(F)F)c2)C2CCSCC2)c1"
reading_unit = "µM"
obs_value = 0.0071

[[record]]
compound = "Cn1cnc(C(=O)N(Cc2ccc(F)c(-c3cccc(Cl)c3)c2)C2CCOCC2)n1"
reading_unit = "µM"
obs_value = 0.0159

[[record]]
compound = "CCCOc1cccc(-c2cc(CN(C(=O)c3ncn(C)n3)C3CCOCC3)ccc2F)c1"
reading_unit = "µM"
obs_value = 0.0418


I = Cn1cnc(C(=O)N(C2CCOCC2)C(CO)Cc2cccc(OC(F)(F)F)c2)c1 (centres unmarked)
II = Cn1cnc(C(=O)N(CCC2CCOCC2)Cc2cccc(OC(F)(F)F)c2)c1
Thinking about recorded IC50 values, which is higher, I or II ? Could you answer with the label of the item you picked?
I

a = Cn1cnc(C(=O)N(Cc2ccc(F)c(-c3cccc(C(F)(F)F)c3)c2)C2CCOCC2)n1
b = Cn1cnc(C(=O)N(Cc2ccc(F)c(Cl)c2)C2CCOCC2)c1
Thinking about recorded IC50 values, which is higher, a or b ? Could you answer with the label of the item you picked?
a
(a: 0.0181 µM, b: 0.0059 µM)

P = Cn1cnc(C(=O)N(Cc2ccc(F)c(-c3ccc(F)cc3)c2)C2CCSCC2)c1
Q = Cn1cnc(C(=O)N(Cc2ccc(F)c(Br)c2)C2CCOCC2)n1
Thinking about recorded IC50 values, which is higher, P or Q ? Could you answer with the label of the item you picked?
Q
